- test.system: HLA-A*0201 (Homo sapiens, UniProt P04439, D140Y/D185E/D98H/E176V/E277Q/G131W/G231S/I119V/I121R/I166T/I218V/L300P/L318F/N151K/N90K/P208A/P217A/Q86G/Q94H/R138H/R169H/T345S)
- Construct: the human tumoral cell T2 which expresses the HLA-A*0201 molecule; endogenous in cells; host or cells: T2 cells (human, TAP1/2 negative)
- procedure.text: Affinity of the peptide to T2 cell line: HLA-A2 labelling by FACS, relative to HIV pol 589-597
- Format: binding
- measurement.conditions: Example 2, Table 4
reported.metric: Concentration of peptide that induces 20% of HLA-A2 expression (µM)
// note: answer is a bare numeric in µM

Some sequences with known Concentration of peptide that induces 20% of HLA-A2 expression results, for comparison:
[
  {
    "residues": "LMDLSTTPL (listed as Homo sapiens) [FOXM1-H2, reference compound]",
    "reported.measurement": 12.6
  },
  {
    "residues": "SMFRVLIGT (listed as Homo sapiens) [EZH2-H2, reference compound]",
    "reported.measurement": 39.2
  },
  {
    "residues": "AVFRVLIPV [EZH2-B2]",
    "reported.measurement": 8.3
  },
  {
    "residues": "LLLSAALSV [CHI3L1 B]",
    "reported.measurement": 3.6
  },
  {
    "residues": "ILDEAYVRV [EGFR-B]",
    "reported.measurement": 3.1
  }
]

Measured Concentration of peptide that induces 20% of HLA-A2 expression, FLDSLGFSL [TYMS B2] : 2.7

For GLLGEFLQI [BIRC5-B3] the sequence record lists Concentration of peptide that induces 20% of HLA-A2 expression as 22.9

// recorded Concentration of peptide that induces 20% of HLA-A2 expression for YTLGEFLYI [BIRC5-B2] : 14.7

// sample FMLGEFLKL [BIRC5-B1] , its Concentration of peptide that induces 20% of HLA-A2 expression was 2.7

Sample RLSSYLVEI [FOXM1-B] ; Concentration of peptide that induces 20% of HLA-A2 expression observed: 46.7

----------
- test.system: HLA-A*0201 (Homo sapiens, UniProt P04439, D140Y/D185E/D98H/E176V/E277Q/G131W/G231S/I119V/I121R/I166T/I218V/L300P/L318F/N151K/N90K/P208A/P217A/Q86G/Q94H/R138H/R169H/T345S)
- Construct: the human tumoral cell T2 which expresses the HLA-A*0201 molecule; endogenous in cells; host or cells: T2 cells (human, TAP1/2 negative)
- procedure.text: Affinity of the peptide to T2 cell line: HLA-A2 labelling by FACS, relative to HIV pol 589-597
- Type: binding
- measurement.conditions: Example 2, Table 4
- Excerpt: The experimental protocol is similar to the one that was validated for peptides presented by the HLA-A*0201 (Tourdot et al., A general strategy to enhance immunogenicity of low-affinity HLA-A2.1-associated peptides: implication in the identification of cryptic tumor epitopes. Eur J Immunol. 2000 December; 30(12):3411-21). […]
reported.metric: Concentration of peptide that induces 20% of HLA-A2 expression (µM)
All answers are understood in µM, so give the number only.

Would you please look over these solved cases?
[
  {
    "residues": "VLEELLWFI (listed as Homo sapiens) [TYMS H, reference compound]",
    "reported.measurement": 4.1
  },
  {
    "residues": "FLPFGFILV [IL13RA2-B]",
    "reported.measurement": 2.9
  },
  {
    "residues": "FLPFGFILPV [IL13RA2-L]",
    "reported.measurement": 3.2
  },
  {
    "residues": "FMVEDETVL (listed as Homo sapiens) [EZH2-H, reference compound]",
    "reported.measurement": 13.3
  },
  {
    "residues": "FLDSLGFST (listed as Homo sapiens) [TYMS H2, reference compound]",
    "reported.measurement": 9.5
  },
  {
    "residues": "RVSSYLVPI (listed as Homo sapiens) [FOXM1-H, reference compound]",
    "reported.measurement": 37.6
  },
  {
    "residues": "YLLSAALTI [CHI3L1 B3]",
    "reported.measurement": 8.6
  },
  {
    "residues": "LMDLSTTEV [FOXM1-B2]",
    "reported.measurement": 6.7
  }
]

// field: Concentration of peptide that induces 20% of HLA-A2 expression; key: SMEELLWFV [TYMS B] ; value = 1.1

Memo: FLVEDETVI [EZH2-B] , reported Concentration of peptide that induces 20% of HLA-A2 expression: 8.8

So for LTLGEFLKL (listed as Homo sapiens) [BIRC5-H, reference compound] , the logged Concentration of peptide that induces 20% of HLA-A2 expression turned out to be 53.0
